Biological target: ATM kinase (Homo sapiens (Human), UniProt Q13315)
Test: Assay a) ATM cellular potency assay (pATM Ser1981 in X-ray irradiated HT29 cells)
Conditions: HT29 cells, pATM Ser1981 after X-ray irradiation; geometric mean where repeated; read-out: Assay a) ATM Cell IC50
measured_metric: IC50 (nM)

Example results:
• CNCCCOc1ccc(-c2ccc3ncc4c(c3c2)n([C@@H]2CCCOC2)c(=O)n4C)cn1 = 0.592
• CO[C@H]1CC[C@@H](n2c(=O)n(C)c3cnc4cc(F)c(-c5ccc(OCCCN(C)C)nc5)cc4c32)C1 = 2.43
• CN(C)CCCOc1ccc(-c2cc3c(cc2F)ncc2c3n([C@H]3CCCOC3)c(=O)n2C)c(F)n1 = 1.02
• CO[C@H]1C[C@@H](n2c(=O)[nH]c3cnc4ccc(-c5ccc(OCCCN(C)C)nc5)cc4c32)C1 = 1.03
• CO[C@H]1C[C@@H](n2c(=O)n(C)c3cnc4ccc(-c5ccc(OCCCN6CCC6)nc5)cc4c32)C1 = 0.292

I: Cn1c(=O)n([C@@H]2CCCOC2)c2c3cc(-c4ccc(OCCCN5CCCCC5)nc4)ccc3ncc21
II: CO[C@H]1C[C@@H](n2c(=O)n(C)c3cnc4ccc(-c5ccc(OCCCN6CCCC6)nc5)cc4c32)C1
Select one: I or II . Criterion: greater recorded IC50. Identify your pick by its label.
I
(I: 1.78 nM, II: 0.176 nM)

----------
Target: ATR kinase (Homo sapiens (Human))
Sequence (Q13535 whole entry): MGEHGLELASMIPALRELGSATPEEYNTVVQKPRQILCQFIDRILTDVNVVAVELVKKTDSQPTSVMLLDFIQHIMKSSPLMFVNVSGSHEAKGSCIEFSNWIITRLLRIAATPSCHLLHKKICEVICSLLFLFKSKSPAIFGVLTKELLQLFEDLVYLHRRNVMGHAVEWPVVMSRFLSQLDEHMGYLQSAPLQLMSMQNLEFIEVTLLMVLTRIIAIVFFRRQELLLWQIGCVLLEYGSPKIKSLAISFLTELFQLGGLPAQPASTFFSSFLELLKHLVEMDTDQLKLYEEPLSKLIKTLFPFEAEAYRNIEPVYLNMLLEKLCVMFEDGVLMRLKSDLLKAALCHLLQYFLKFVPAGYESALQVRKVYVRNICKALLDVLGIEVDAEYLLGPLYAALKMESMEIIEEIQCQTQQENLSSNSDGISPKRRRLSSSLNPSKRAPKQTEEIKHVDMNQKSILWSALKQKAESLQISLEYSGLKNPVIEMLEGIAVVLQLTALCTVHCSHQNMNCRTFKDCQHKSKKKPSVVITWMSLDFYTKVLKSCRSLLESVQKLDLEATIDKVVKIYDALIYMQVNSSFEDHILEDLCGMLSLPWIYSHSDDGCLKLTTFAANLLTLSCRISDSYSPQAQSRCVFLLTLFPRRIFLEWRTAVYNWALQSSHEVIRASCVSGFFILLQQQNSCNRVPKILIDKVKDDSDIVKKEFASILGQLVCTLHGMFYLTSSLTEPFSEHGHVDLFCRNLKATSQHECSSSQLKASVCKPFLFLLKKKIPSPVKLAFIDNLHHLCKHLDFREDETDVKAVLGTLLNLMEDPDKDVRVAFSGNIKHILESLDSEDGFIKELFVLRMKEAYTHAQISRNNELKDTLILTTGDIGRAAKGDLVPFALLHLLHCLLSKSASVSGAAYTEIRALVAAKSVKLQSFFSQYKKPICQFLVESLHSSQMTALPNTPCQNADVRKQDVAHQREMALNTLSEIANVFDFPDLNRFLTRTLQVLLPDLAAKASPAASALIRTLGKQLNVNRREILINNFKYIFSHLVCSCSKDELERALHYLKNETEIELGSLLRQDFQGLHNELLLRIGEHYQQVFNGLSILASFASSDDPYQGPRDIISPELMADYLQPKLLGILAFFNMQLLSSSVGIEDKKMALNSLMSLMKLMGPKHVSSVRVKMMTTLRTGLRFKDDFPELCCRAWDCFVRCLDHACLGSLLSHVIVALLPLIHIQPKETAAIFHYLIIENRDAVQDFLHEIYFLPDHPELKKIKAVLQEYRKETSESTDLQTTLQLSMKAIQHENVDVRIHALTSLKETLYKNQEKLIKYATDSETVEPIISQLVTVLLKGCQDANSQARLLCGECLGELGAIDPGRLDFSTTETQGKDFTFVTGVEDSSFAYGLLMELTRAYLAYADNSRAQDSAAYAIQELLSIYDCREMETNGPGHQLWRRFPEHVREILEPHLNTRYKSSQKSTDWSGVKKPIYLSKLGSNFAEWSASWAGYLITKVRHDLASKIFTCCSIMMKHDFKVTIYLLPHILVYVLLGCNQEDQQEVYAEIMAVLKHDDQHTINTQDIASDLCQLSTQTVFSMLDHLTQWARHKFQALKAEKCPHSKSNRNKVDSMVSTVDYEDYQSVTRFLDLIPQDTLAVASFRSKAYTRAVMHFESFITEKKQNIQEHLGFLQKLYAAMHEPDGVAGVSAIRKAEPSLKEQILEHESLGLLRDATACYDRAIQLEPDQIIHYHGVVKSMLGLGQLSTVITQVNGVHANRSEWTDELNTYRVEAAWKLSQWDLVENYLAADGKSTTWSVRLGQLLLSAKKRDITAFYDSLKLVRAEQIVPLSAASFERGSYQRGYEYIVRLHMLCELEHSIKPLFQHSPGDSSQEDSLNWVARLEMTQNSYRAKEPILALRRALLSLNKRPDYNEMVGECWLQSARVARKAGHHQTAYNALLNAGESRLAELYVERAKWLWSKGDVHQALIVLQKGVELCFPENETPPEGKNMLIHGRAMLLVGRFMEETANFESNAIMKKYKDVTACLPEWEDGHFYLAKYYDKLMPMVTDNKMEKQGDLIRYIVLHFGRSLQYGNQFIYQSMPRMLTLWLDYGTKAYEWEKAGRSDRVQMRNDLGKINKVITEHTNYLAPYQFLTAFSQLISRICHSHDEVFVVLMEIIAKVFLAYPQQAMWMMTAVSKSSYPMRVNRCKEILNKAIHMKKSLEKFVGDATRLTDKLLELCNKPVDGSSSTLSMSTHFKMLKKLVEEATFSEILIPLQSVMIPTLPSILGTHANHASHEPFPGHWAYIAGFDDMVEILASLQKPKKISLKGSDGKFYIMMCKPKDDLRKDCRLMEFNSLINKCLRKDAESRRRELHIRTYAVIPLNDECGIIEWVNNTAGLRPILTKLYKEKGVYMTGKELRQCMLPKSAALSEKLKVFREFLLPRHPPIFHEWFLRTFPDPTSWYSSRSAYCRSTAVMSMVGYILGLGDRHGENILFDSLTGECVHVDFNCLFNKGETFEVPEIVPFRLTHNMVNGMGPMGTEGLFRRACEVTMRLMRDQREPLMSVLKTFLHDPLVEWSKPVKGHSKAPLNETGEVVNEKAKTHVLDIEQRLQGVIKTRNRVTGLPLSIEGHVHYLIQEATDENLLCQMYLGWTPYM
Sequence (Q8WXE1 whole entry partner): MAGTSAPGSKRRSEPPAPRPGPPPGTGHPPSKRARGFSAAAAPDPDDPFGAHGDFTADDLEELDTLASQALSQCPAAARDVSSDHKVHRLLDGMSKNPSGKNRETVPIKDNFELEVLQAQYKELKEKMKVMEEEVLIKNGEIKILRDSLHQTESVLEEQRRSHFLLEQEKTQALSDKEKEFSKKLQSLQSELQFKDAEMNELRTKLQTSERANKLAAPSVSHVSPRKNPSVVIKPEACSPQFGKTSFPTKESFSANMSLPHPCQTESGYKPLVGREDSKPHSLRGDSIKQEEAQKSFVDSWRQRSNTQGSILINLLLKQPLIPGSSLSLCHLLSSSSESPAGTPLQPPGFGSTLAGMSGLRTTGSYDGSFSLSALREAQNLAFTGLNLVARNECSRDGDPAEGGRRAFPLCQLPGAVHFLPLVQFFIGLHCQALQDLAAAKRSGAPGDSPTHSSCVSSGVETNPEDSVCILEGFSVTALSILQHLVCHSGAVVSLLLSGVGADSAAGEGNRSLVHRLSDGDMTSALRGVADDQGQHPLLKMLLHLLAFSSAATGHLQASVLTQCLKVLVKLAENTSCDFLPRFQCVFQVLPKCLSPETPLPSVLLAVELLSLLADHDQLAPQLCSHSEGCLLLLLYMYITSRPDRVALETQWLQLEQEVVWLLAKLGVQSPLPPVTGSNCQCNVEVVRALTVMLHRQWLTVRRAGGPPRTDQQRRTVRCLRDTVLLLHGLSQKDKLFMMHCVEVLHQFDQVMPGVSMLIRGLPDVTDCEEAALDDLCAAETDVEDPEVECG
Assay: Assay b) ATR cellular potency assay (pChk1 Ser345 in HT29 cells treated with 4NQO)
Conditions: HT29 cells, pChk1 Ser345 after 4NQO; geometric mean where repeated; read-out: Assay b) ATR Cell IC50
pIC50: −log10 of the molar value.
measured_metric: pIC50

Example results:
* CN(C)CCCOc1ccc(-c2cc3c(cc2F)ncc2c3n([C@H]3CCCOC3)c(=O)n2C)c(F)n1 | < 4.52
* Cn1c(=O)n([C@H]2CCCOC2)c2c3cc(-c4ccc(OCCCN5CCCC5)nc4F)ccc3ncc21 | < 4.52
* Cn1c(=O)n([C@H]2C[C@@H](O)C2)c2c3cc(-c4ccc(OCCCN5CCCC5)nc4)ccc3ncc21 | < 4.52
* CN(C)CCCOc1ccc(-c2ccc3ncc4c(c3c2)n(C2CCC2)c(=O)n4C)c(F)n1 | < 4.52
* CN(C)CCCOc1ccc(-c2ccc3ncc4c(c3c2)n([C@@H]2CCCOC2)c(=O)n4C)c(F)n1 | < 4.52
* CO[C@H]1C[C@@H](n2c(=O)n(C)c3cnc4ccc(-c5ccc(OCCCN(C)C)nc5)cc4c32)C1 | < 4.54
* CO[C@H]1CC[C@H](n2c(=O)n(C)c3cnc4ccc(-c5ccc(OCCCN(C)C)nc5)cc4c32)C1 | < 4.66
* CO[C@@H]1CC[C@@H](n2c(=O)n(C)c3cnc4ccc(-c5ccc(OCCCN6CCCCC6)nc5)cc4c32)C1 | < 4.62
* CNCCCOc1ccc(-c2ccc3ncc4c(c3c2)n([C@H]2C[C@@H](OC)C2)c(=O)n4C)cn1 | 5.36
* CN(C)CCCOc1ccc(-c2ccc3ncc4c(c3c2)n(C2CCOCC2)c(=O)n4C)c(F)n1 | < 4.52

Lab note: measured pIC50 of Cn1c(=O)n([C@H]2CCOC2)c2c3cc(-c4ccc(OCCCN5CCCCC5)nc4)ccc3ncc21 was < 4.79

Lab note: measured pIC50 of Cn1c(=O)n([C@@H]2CCOC2)c2c3cc(-c4ccc(OCCCN5CCCCC5)nc4)ccc3ncc21 was < 4.57

Lab note: measured pIC50 of Cn1c(=O)n(C2CCC2)c2c3cc(-c4ccc(OCCCN5CCCC5)nc4)ccc3ncc21 was < 4.55

Lab note: measured pIC50 of CNCCCOc1ccc(-c2ccc3ncc4c(c3c2)n(C2CCOCC2)c(=O)n4C)cn1 was 5.88

Lab note: measured pIC50 of CN(C)CCCOc1ccc(-c2cc3c(cc2F)ncc2c3n(C3CCOCC3)c(=O)n2C)cn1 was < 4.52
